- test summary: yeast display, Sf9 membrane polyspecificity reagent, FACS + sequencing; frameworks hold sequencing errors
readout kind: polyreactivity (PSR sort gate)

Recorded polyreactivity (PSR sort gate), per entry:
QVQLVESGGGLVQAGGSLRLSCAASGFTFFHNAMGWYRQAPGKERELVAAITSGGNTYYADSVKGRFTISRDNAKNTVYLQMNSLKPEDTAVYFCNAVISRVVRYEYWGQGTQVTVSS ... high polyreactivity
QVQLVESGGGLVQAGGSLRLSCAASGYTFKTNDMGWSRQAPGKEREFVAAIDSGGNTYYADSVKGRFTISRDNAKNTVYLQMNSLKPEDTAVYYCAAYRDYQYDYWGQGTQVTVSS ... low polyreactivity
QVQLVESGGGLVQAGGSLRLSCAASGRTFVANAMGLYRQAPGKERELVAAISSSGGSTYYADSVKGRFTISRDYAKNTVYLQMNSLKPEDTAVYYCNRVGVYYRLYPYYYWGQGTQVTVSS ... high polyreactivity
QVQHVESGGGLVQAGGSLRLSCAASGRTFRNYAMGWYRQAPGKERELVAAISSGGSTNYADSVKGRFTISRDNAKNTVYLQMNSLKPEDTAVYYCAARQRAYYGPGFDYWGQGTQVTVSS ... low polyreactivity
QVQLVESGGGLVQAGGSLRLSCAASGSTLNSYVMGWYRQAPGKERELVATIRSGSSTNYADSVKGRFTISRDNAKNTVYLQMNSLKPEDTAVYYCAADAYSLCYDSWGQGTQVTVSS ... low polyreactivity
QFQLVESGGGLVQAGGSLRLSCAASGRIFVPNGMGWYRQAPGKERELVAVIDWSGGSTYYADSVKGRFTISRDNAKNTVYLQMNRLKPEDTAVYYCNAYPYDESDYWGQGTQVTVSS ... low polyreactivity
QLQHVESGGGLVQAGGSLRLSCADSGFILYLNAMGWYRQAPGKERELVATITNRGGSTYYADTVKGRFTISRDNAKNTVYLQMNSLKPEDTAVYYCAARTRERYSKPYFYRRFGYWGQGTQVTVSS ... low polyreactivity
QVQLVESGGGLVQAGGSLRLSCAASGRTFPAYAMGWYRQAPGKERELVASIDLSGGSTSYADSVKGRFTISRDNAKNTVYLQMNSLKPEDTAVYYCAKKGRWSSASSGYYYWGQGTQVTVSS ... low polyreactivity
QVQLVESGGGLVQAGGSLRLSCAASGIIIQINAMGWYRQAPGKERELVAAITIDGTTNYADSVKGRFTISRDNAKNTVYLQMNSLKPEDTAVYYCARRRSVYVWEPYQYDYWGQGTQVTVSS ... low polyreactivity
QVQLVESGGGLVQAGGSLRLSCAASGSILYLNARGWYRQAPGKERELVAGISRRGGRTTYADSVKGRFTISRDNAKNTVYLQMNSLKPEDTAVSYCAVSTAYGYGYWGQGTQVTVSS ... high polyreactivity

Inquiry: Consider the sequence QVQLVESGVGLVQAGGSLRLSCAASGISFLVYAMGWYRQAPGKERELVAAISADAGGTYYADSVKGRFTISRDNAKNNVYFQMNSLKPEDTAVYYCNVDGRSDGDDYWGQGTQVTVSS and give its measured polyreactivity (PSR sort gate).
Reply text: low polyreactivity

Data provenance: the nanobody polyreactivity screen of Harvey et al. (2022)
